Tested on: Mycobacterium kansasii
Experiment: Antimycobacterial activity against Mycobacterium kansasii 6509/96 after 21 days by micromethod
Format: functional
Conditions: 6509/96, 504 h
Please go through the items and note down their MIC.

Find MIC (Mycobacterium kansasii) for the entry CCCCCCCCCCCNC(=O)Oc1ccc(Cl)cc1C(=O)Nc1ccc(Cl)c(Cl)c1
4 µM

Find MIC (Mycobacterium kansasii) for the entry CCCCCCNC(=O)Oc1ccc(Cl)cc1C(=O)Nc1cccc(Cl)c1
4 µM

Find MIC (Mycobacterium kansasii) for the entry CCCCCCCNC(=O)Oc1ccc(Cl)cc1C(=O)Nc1cccc(Cl)c1
8 µM

Find MIC (Mycobacterium kansasii) for the entry CCCCCCCCCCNC(=O)Oc1ccc(Cl)cc1C(=O)Nc1cccc(Cl)c1
8 µM

Find MIC (Mycobacterium kansasii) for the entry CCCCCCCCNC(=O)Oc1ccc(Cl)cc1C(=O)Nc1ccc(Cl)cc1
4 µM
